B1: CLCN6 (parent)
chain: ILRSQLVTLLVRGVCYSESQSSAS

# Variants of: B1
# experimental.details: protein stability index of a GFP-peptide fusion (GPS, HEK-293T) (PSI 1-6); higher = more stable;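 note: lentivirally expressed fusions sorted by FACS into six bins by GFP to DsRed ratio, PSI derived from sequencing read proportions per bin multiplied by bin number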
# recorded.conditions: c terminus: a fixed tail appended
parameter: protein stability index
Just the number.

Tell me measured protein stability index for V7E please.
2.37

Tell me measured protein stability index for S21N please.
2.81

Tell me measured protein stability index for S24Q please.
1.85

Tell me measured protein stability index for V7K please.
2.23

Tell me measured protein stability index for V7R please.
2.57

Tell me measured protein stability index for S21Y please.
2.89

Tell me measured protein stability index for T8E please.
3.03
